Each recorded value in this set is attributed to patent US8952024B2.

# System: blackgrass (Alopecurus myosuroides)
# experiment.description: Test B pre-/postemergence plant response
# Assay type: in vivo
# condition.set: Postemergence, 31 g ai/ha; 0 to 100 scale (0 no effect, 100 complete control)
parameter: Plant response rating, Blackgrass
Answers are plain numbers.

[
  {
    "compound": "CCc1cccc(-n2c(-c3ccccc3)ncc(C(=O)C3=C(O)CCCC3=O)c2=O)c1 [Compound 220]",
    "Plant response rating, Blackgrass": 10
  },
  {
    "compound": "O=C1CCCC(O)=C1C(=O)c1cnc(-c2ccsc2)n(C2CCOCC2)c1=O [Compound 186]",
    "Plant response rating, Blackgrass": 0
  },
  {
    "compound": "CCn1c(-c2cc(F)cc(F)c2)ncc(C(=O)C2=C(O)CCCC2=O)c1=O [Compound 122]",
    "Plant response rating, Blackgrass": 5
  },
  {
    "compound": "CCCc1ncc(C(=O)C2=C(O)CCCC2=O)c(=O)n1-c1ccccc1 [Compound 217]",
    "Plant response rating, Blackgrass": 0
  }
]

For every record below, what is its Plant response rating, Blackgrass?
1. CCCn1c(-c2cccc(F)c2)ncc(C(=O)C2=C(O)CCCC2=O)c1=O [Compound 127]
2. CCn1c(-c2cccc(F)c2)ncc(C(=O)C2=C(O)C3CCC(C3)C2=O)c1=O (stereo not shown) [Compound 236]

1: 5; 2: 0

Given the entry CCCn1c(-c2cc(Cl)cc(Cl)c2)ncc(C(=O)C2=C(O)CCCC2=O)c1=O [Compound 173] , report its measured Plant response rating, Blackgrass.
5

----------
What Plant response rating, Goosegrass was measured for each of the following?
# System: goosegrass (Eleusine indica)
# experiment.description: Test B pre-/postemergence plant response
# Assay type: in vivo
# condition.set: 31 g ai/ha, postemergence; scale 0 to 100, 0 is no effect, 100 is complete control
Answers are plain numbers.

[
  {
    "compound": "CCCc1ncc(C(=O)C2=C(O)CCCC2=O)c(=O)n1CCC [Compound 72]",
    "system.tested": "goosegrass (Eleusine indica)",
    "measured.value": 60
  },
  {
    "compound": "O=C1CCCC(O)=C1C(=O)c1cnc(C2CC2)n(-c2ccccc2)c1=O [Compound 87]",
    "system.tested": "goosegrass (Eleusine indica)",
    "measured.value": 75
  },
  {
    "compound": "O=C1CCCC(O)=C1C(=O)c1cnc(-c2cccs2)n(-c2ccccc2)c1=O [Compound 66]",
    "system.tested": "goosegrass (Eleusine indica)",
    "measured.value": 65
  }
]

For every record below, what is its Plant response rating, Goosegrass?
1. O=C1CCCC(O)=C1C(=O)c1cnc(-c2ccccc2)n(C2CC2)c1=O [Compound 90]
2. CCCc1ncc(C(=O)C2=C(O)CCCC2=O)c(=O)n1-c1cccc(C)c1 [Compound 79]
3. CCCCc1ncc(C(=O)C2=C(O)CCCC2=O)c(=O)n1-c1ccccc1C [Compound 62]

[60, 45, 65]

For every record below, what is its Plant response rating, Goosegrass?
1. COCCn1c(-c2ccco2)ncc(C(=O)C2=C(O)CCCC2=O)c1=O [Compound 111]
2. O=C1CCCC(O)=C1C(=O)c1cnc(-c2cccc(Br)c2)n(-c2ccccc2)c1=O [Compound 69]
3. CCCn1c(-c2ccsc2)ncc(C(=O)C2=C(O)CCCC2=O)c1=O [Compound 93]
4. Cc1cccc(-n2c(-c3ccccc3)ncc(C(=O)C3=C(O)CCCC3=O)c2=O)c1F [Compound 58]

70
75
60
70

----------
# Tested on: wild oat (Avena fatua)
# experiment.description: Test B pre-/postemergence plant response
# Type: in vivo
# condition.set: Postemergence, 31 g ai/ha; 0 to 100 scale (0 no effect, 100 complete control)
parameter: Plant response rating, Oat, Wild
Give bare numbers.

[
  {
    "compound": "COCCCn1c(-c2cc(F)cc(F)c2)ncc(C(=O)C2=C(O)C3CCC(C3)C2=O)c1=O (stereo not shown)",
    "Plant response rating, Oat, Wild": 50
  },
  {
    "compound": "CCCc1ncc(C(=O)C2=C(O)CCCC2=O)c(=O)n1-c1ccccc1",
    "Plant response rating, Oat, Wild": 30
  },
  {
    "compound": "O=C1CCCC(O)=C1C(=O)c1cnc(-c2ccccc2)n(C2CCOCC2)c1=O",
    "Plant response rating, Oat, Wild": 0
  },
  {
    "compound": "CCn1c(-c2cc(F)cc(F)c2)ncc(C(=O)C2=C(O)CCCC2=O)c1=O",
    "Plant response rating, Oat, Wild": 5
  },
  {
    "compound": "CCCn1c(-c2cc(Cl)cc(Cl)c2)ncc(C(=O)C2=C(O)CCCC2=O)c1=O",
    "Plant response rating, Oat, Wild": 50
  }
]

For every record below, what is its Plant response rating, Oat, Wild?
1. O=C1CCCC(O)=C1C(=O)c1cnc(C2CC2)n(C2CCCCC2)c1=O
2. CCc1cccc(-n2c(-c3ccccc3)ncc(C(=O)C3=C(O)CCCC3=O)c2=O)c1

[10, 10]

----------
What Plant response rating, Foxtail, Green was measured for each of the following?
# System: green foxtail (Setaria viridis)
# experiment.description: Test B pre-/postemergence plant response
# Type: in vivo
# condition.set: Postemergence, 125 g ai/ha; scale 0 to 100 (0 no effect, 100 complete control)

[
  {
    "compound": "CCn1c(-c2cccc(F)c2)ncc(C(=O)C2=C(O)C3CCC(C3)C2=O)c1=O (stereo not drawn)",
    "measured.value": 98
  }
]

For every record below, what is its Plant response rating, Foxtail, Green?
1. COCCn1c(-c2ccco2)ncc(C(=O)C2=C(O)CCCC2=O)c1=O
2. O=C1CCCC(O)=C1C(=O)c1cnc(-c2ccccc2)n(C2CC[S+]([O-])CC2)c1=O (mixture of isomers)
3. O=C1CCCC(O)=C1C(=O)c1cnc(-c2ccsc2)n(CC2CCCO2)c1=O (stereo not drawn)
4. O=C1CCCC(O)=C1C(=O)c1cnc(-c2ccccc2)n(C2CCCCCC2)c1=O
5. CCCc1ncc(C(=O)C2=C(O)CCCC2=O)c(=O)n1-c1ccccc1

[65, 95, 85, 95, 85]

----------
# Test system: barnyardgrass (Echinochloa crus-galli)
# experiment.description: Test B flooded paddy test
# Assay type: in vivo
# condition.set: Flood, 31 g ai/ha; scale 0 to 100 (0 no effect, 100 complete control)
parameter: Barnyardgrass plant response rating
Answers are plain numbers.

For every record below, what is its Barnyardgrass plant response rating?
1. O=C1CCCC(O)=C1C(=O)c1cnc(-c2ccccc2)n(C2CCCCCCC2)c1=O [Compound 215]
2. O=C1CCCC(O)=C1C(=O)c1cnc(-c2ccccc2)n(C2CCCCC2)c1=O [Compound 128]
3. Cc1ccc(F)cc1-n1c(-c2cc(F)cc(F)c2)ncc(C(=O)C2=C(O)CCCC2=O)c1=O [Compound 183]

[0, 0, 0]

For every record below, what is its Barnyardgrass plant response rating?
1. COc1ccc(-n2c(-c3cccc(Br)c3)ncc(C(=O)C3=C(O)CCCC3=O)c2=O)cc1 [Compound 176]
2. O=C1CCCC(O)=C1C(=O)c1cnc(-c2ccsc2)n(C2CCCCC2)c1=O [Compound 99]
3. Cc1cccc(-c2ncc(C(=O)C3=C(O)CCCC3=O)c(=O)n2-c2cc(F)ccc2C)c1 [Compound 178]
4. O=C1CCCC(O)=C1C(=O)c1cnc(C2CCCC2)n(-c2ccccc2)c1=O [Compound 92]
5. COc1ccc(-n2c(-c3cccc(Cl)c3)ncc(C(=O)C3=C(O)CCCC3=O)c2=O)cc1 [Compound 151]

1: 0; 2: 0; 3: 20; 4: 0; 5: 0

For every record below, what is its Barnyardgrass plant response rating?
1. Cc1ccc(Cl)cc1-n1c(-c2cccc(Cl)c2)ncc(C(=O)C2=C(O)CCCC2=O)c1=O [Compound 148]
2. O=C1CCCC(O)=C1C(=O)c1cnc(-c2ccc(Br)cc2)n(-c2ccccc2)c1=O [Compound 70]
3. Cc1ccc(-n2c(-c3cc(F)cc(F)c3)ncc(C(=O)C3=C(O)CCCC3=O)c2=O)cc1 [Compound 162]

1: 0; 2: 0; 3: 20

For every record below, what is its Barnyardgrass plant response rating?
1. O=C(C1=C(O)C2CCC(C2)C1=O)c1cnc(-c2ccccc2)n(CC2CCCO2)c1=O (stereo not shown) [Compound 250]
2. COCCCn1c(-c2ccccc2)ncc(C(=O)C2=C(O)CCCC2=O)c1=O [Compound 81]
3. CCCc1ncc(C(=O)C2=C(O)CCCC2=O)c(=O)n1CCC [Compound 72]
4. O=C1CCCC(O)=C1C(=O)c1cnc(-c2ccccc2)n(C2CCOCC2)c1=O [Compound 129]

0
0
0
0

Given the entry Cc1ccc(-n2c(-c3cccc(C)c3)ncc(C(=O)C3=C(O)CCCC3=O)c2=O)cc1 [Compound 211] , report its measured Barnyardgrass plant response rating.
0
